Data origin: ChEMBL document CHEMBL1132740

Angiopoietin-1 receptor (Homo sapiens) measurements of pIC50, listed per entry.
Sequence (Q02763 whole entry): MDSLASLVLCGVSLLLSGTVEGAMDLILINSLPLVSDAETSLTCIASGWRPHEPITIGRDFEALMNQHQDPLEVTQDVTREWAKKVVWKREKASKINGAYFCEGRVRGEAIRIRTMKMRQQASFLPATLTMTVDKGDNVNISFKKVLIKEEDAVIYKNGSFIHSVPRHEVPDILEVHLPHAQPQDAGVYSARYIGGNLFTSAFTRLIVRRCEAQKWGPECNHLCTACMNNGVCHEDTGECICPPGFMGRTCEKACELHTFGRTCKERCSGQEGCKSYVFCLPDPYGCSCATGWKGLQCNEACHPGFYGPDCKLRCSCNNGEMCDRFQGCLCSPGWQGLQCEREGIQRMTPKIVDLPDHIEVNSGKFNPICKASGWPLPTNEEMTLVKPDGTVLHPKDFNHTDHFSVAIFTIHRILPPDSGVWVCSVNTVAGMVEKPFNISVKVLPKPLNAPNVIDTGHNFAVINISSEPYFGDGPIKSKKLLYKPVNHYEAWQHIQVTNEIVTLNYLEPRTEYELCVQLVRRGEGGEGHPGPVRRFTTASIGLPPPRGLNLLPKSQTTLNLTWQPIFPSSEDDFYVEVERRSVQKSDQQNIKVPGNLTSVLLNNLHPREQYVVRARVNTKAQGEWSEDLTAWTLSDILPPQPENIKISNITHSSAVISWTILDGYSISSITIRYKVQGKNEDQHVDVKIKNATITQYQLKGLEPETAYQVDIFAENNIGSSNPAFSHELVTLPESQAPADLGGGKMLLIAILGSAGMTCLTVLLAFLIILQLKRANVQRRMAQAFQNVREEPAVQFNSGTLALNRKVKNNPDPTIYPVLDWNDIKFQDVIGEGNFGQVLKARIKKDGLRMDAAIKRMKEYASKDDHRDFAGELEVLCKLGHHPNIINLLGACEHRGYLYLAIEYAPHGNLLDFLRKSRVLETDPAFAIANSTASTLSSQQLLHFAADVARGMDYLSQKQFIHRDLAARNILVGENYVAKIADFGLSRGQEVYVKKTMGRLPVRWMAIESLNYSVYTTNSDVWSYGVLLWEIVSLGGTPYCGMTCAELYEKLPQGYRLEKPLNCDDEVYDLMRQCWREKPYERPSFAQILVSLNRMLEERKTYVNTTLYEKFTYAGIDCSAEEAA
Give bare numbers, as −log10 of the molar value.

Solved cases below.
1) N#Cc1c(-c2ccc(Oc3ccccc3)cc2)c2c(N)ncnc2n1C1CCCC1	6.30
2) Nc1ncnc2c1c(-c1ccc(Oc3ccccc3)cc1)c(CN1CCOCC1)n2C1CCCC1	5.99
3) CC(C)n1cc(-c2ccc(Oc3ccccc3C(=O)O)cc2)c2c(N)ncnc21	6.17
4) CC(C)(C)n1cc(-c2ccc(Oc3ccc(N)cc3)cc2)c2c(N)ncnc21	6.05
5) CC(C)n1cc(-c2ccc(Oc3ccc(C#N)cc3)cc2)c2c(N)ncnc21	6.01
6) CC(C)n1cc(-c2ccc(Oc3ccccc3CO)cc2)c2c(N)ncnc21	6.79
7) Nc1ncnc2c1c(-c1ccc(Oc3ccccc3)cc1)c(C(=O)O)n2C1CCCC1	6.39
8) COCc1c(-c2ccc(Oc3ccccc3)cc2)c2c(N)ncnc2n1C1CCCC1	5.65

Parameter requested: pIC50. Apply to each item below.
1. NCc1c(-c2ccc(Oc3ccccc3)cc2)c2c(N)ncnc2n1C1CCCC1
2. CC(C)(C)n1cc(-c2ccc(Oc3ccc(O)cc3)cc2)c2c(N)ncnc21

1. 6.89
2. 5.74

====

Let's go through some IC50 measurements on UniProtKB P06239 together.
Your answer should be a number followed by the unit of measure.

1. COc1ccccc1Oc1ccc(-c2cn(C3CCCC3)c3ncnc(N)c23)cc1	20 nM
2. Nc1ncnc2c1c(-c1ccc(Oc3ccccc3)cc1)c(Cl)n2C1CCCC1	60 nM
3. CC(C)(C)n1cc(-c2ccc(Oc3cccc(N)c3)cc2)c2c(N)ncnc21	15 nM
4. CC(C)(C)n1cc(-c2ccc(Oc3ccc(O)cc3)cc2)c2c(N)ncnc21	17 nM

Form field: IC50 recorded for Nc1ncnc2c1c(-c1ccc(Oc3ccccc3O)cc1)cn2C1CCCC1 with UniProtKB P06239 (enter value)
330 nM

====

molecular target: Tyrosine-protein kinase Fyn (Homo sapiens)
Sequence (P06241 whole entry): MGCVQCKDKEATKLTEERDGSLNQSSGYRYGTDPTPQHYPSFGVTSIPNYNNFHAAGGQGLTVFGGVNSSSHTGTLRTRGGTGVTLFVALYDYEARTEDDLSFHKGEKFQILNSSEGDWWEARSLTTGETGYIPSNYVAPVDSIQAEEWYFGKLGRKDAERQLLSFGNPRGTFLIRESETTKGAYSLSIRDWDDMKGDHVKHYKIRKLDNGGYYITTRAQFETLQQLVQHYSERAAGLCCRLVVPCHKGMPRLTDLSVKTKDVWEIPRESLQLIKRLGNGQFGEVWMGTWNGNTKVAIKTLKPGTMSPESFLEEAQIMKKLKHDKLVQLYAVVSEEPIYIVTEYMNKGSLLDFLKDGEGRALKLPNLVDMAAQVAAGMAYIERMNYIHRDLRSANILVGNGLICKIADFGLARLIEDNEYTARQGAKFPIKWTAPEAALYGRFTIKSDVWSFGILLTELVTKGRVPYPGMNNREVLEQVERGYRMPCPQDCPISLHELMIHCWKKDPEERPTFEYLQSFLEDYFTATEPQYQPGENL
Attribute measured: pIC50
One number for each entry, as −log10 of the molar value.

// pIC50 lookup, key: Nc1ncnc2c1c(-c1ccc(Oc3ccccc3)cc1)cn2C1CCCC1
6.90

====

target: Tyrosine-protein kinase Lck (Homo sapiens, UniProt P06239)
Sequence (P06239 whole entry): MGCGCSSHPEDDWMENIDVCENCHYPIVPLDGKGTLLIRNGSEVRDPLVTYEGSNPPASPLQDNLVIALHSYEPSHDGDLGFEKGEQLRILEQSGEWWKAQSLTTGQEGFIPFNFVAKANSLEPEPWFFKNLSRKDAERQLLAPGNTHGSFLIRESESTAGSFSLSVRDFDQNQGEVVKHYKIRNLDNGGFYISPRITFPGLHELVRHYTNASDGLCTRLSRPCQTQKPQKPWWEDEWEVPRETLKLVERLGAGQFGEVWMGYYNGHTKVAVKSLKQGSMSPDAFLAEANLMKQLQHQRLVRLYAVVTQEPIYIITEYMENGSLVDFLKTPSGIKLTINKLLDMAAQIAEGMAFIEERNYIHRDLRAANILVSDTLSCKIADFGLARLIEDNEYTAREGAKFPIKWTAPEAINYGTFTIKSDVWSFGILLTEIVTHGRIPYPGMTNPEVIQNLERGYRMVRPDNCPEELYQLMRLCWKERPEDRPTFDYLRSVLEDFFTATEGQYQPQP
Attribute measured: log10(IC50) (log10 of the value in nM)
In our notation, the value equals log10 of IC50 in nM.

Worked cases, log10(IC50) given:
1. CC(C)n1cc(-c2ccc(Oc3ccccc3[N+](=O)[O-])cc2)c2c(N)ncnc21	1.58
2. CC(C)(C)n1cc(-c2ccc(Oc3ccc(N)cc3)cc2)c2c(N)ncnc21	1.28
3. Nc1ncnc2c1c(-c1ccc(Oc3ccccc3)cc1)c(Br)n2C1CCCC1	3.36

Required: log10(IC50), one value per molecule below.
1. COc1ccc(Oc2ccc(-c3cn(C(C)(C)C)c4ncnc(N)c34)cc2)cc1
2. N#Cc1c(-c2ccc(Oc3ccccc3)cc2)c2c(N)ncnc2n1C1CCCC1
3. NCc1c(-c2ccc(Oc3ccccc3)cc2)c2c(N)ncnc2n1C1CCCC1

1: 1.85; 2: 2.96; 3: 2.97

Recorded log10(IC50) for CC(C)n1cc(-c2ccc(Oc3ccccc3N)cc2)c2c(N)ncnc21 with Tyrosine-protein kinase Lck (Homo sapiens, UniProt P06239), please?
2.18

====

For Vascular endothelial growth factor receptor 2 (Homo sapiens), measured IC50 is reported for the entries below.
Numbers only, in µM.

# batch: return IC50 for each of the 4 molecules below
1. Nc1ncnc2c1c(-c1ccc(Oc3ccccc3)cc1)c(CN1CCOCC1)n2C1CCCC1
2. NCc1c(-c2ccc(Oc3ccccc3)cc2)c2c(N)ncnc2n1C1CCCC1
3. CC(C)(C)n1cc(-c2ccc(Oc3ccc(O)cc3)cc2)c2c(N)ncnc21
4. Cc1c(-c2ccc(Oc3ccccc3)cc2)c2c(N)ncnc2n1C1CCCC1

[3.68, 0.677, 2, 3.35]
